Every entry's value here was drawn from patent US8889704B2.

Target: PIM-1 (Homo sapiens)
Sequence (P11309 whole entry, species assumed): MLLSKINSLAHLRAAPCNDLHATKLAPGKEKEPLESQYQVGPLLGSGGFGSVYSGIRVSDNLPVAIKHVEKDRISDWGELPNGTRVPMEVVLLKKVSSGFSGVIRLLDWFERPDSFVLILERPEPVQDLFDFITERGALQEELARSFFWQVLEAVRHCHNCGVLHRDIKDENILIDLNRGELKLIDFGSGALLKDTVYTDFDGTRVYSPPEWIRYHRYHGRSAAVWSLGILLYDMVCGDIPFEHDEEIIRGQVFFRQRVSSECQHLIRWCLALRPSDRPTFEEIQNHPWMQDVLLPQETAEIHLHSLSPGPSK
Counter-ions that a name gives are not always drawn.
readoutKind: IC50 (nM)

INSERT INTO assay_data (compound, val) VALUES
  ('Cc1c(OC(C)C)ccc2ccc(-c3nnc4ccc([C@@H](N5CC[C@H](N)C5)C(F)(F)F)cn34)nc12 [Example 116, hydrochloride]', 0.24),
  ('CC(C)(C)NC(=O)c1ccc2ccc(-c3nnc4ccc([C@@H](N5CC[C@H](N)C5)C(F)(F)F)cn34)nc2c1C1CC1 [Example 83, dihydrochloride]', 1.13),
  ('NC[C@H]1CCN(C(c2ccc3nnc(-c4ccc5cccc(OCC6CC6)c5n4)n3c2)C(F)(F)F)C1 (stereo partly drawn) [Example 21, dihydrochloride]', 1.14),
  ('CC(C)Oc1cccc2ccc(-c3nnc4ccc([C@@H](N5CC[C@](C)(N)C5)C(F)(F)F)cn34)nc12 [Example 93, dihydrochloride]', 0.2),
  ('COc1cccc2ccc(-c3nnc4ccc([C@@H](N5C[C@@H](N)[C@@H](O)C5)C(F)(F)F)cn34)nc12 [Example 137, dihydrochloride]', 3.5),
  ('CO[C@H](C)COc1cc2nc(-c3nnc4ccc([C@@H](N5CC[C@H](N)C5)C(F)(F)F)cn34)ccc2cc1F [Example 325, di-hydrochloride]', 0.06);
